Molecular target: Cannabinoid receptor 1 (Homo sapiens)
Sequence (P21554 whole entry): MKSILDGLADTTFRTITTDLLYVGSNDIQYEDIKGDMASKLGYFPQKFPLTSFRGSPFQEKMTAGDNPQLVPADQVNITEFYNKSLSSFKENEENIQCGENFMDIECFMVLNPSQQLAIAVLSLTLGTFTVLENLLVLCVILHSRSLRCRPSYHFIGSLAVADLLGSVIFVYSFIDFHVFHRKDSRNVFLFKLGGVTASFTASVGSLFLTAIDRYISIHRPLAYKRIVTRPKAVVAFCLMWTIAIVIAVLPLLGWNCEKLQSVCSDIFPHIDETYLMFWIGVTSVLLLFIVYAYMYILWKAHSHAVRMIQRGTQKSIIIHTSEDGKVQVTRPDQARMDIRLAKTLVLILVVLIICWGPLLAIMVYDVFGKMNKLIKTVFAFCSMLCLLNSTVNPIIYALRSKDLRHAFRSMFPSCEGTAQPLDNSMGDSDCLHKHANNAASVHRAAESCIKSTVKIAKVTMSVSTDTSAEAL
Assay: Agonist activity at human CB1 receptor expressed in CHO cell membrane assessed as stimulation of [35S]-GTPgammaS binding incubated for 1 hr by liquid scintillation counting assay
For each record, write down the corresponding EC50.
Answers are plain numbers, in nM.

Please review the entries below; each comes with its answer.
INSERT INTO assay_data (smilesrepresentation, valuekind, reportedvalue) VALUES
  ('CCCCCc1cc(OC)cc(OCCCCCCCCCCC(=O)NC2CC2)c1', 'EC50', 6.21),
  ('CCCCCCC(C)(C)c1cc(OC)cc(OCCCCCCCC(=O)NC2CC2)c1', 'EC50', 15.1);

Reported EC50 for `CCCCCc1cccc(OCCCCCCCCCCC(=O)NC2CC2)c1` : what is it?
31

====

Molecular target: Cannabinoid receptor 2 (Homo sapiens, UniProt P34972)
Sequence (P34972 whole entry): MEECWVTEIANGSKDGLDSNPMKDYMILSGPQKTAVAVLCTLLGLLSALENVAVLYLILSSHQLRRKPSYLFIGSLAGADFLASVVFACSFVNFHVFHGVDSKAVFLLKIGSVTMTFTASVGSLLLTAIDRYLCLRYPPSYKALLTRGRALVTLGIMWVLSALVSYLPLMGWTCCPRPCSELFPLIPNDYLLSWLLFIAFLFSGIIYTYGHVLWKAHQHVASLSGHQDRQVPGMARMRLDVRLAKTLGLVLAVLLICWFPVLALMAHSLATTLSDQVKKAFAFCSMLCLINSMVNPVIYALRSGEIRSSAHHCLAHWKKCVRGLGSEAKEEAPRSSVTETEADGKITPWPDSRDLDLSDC
Experiment: Displacement of [3H]-CP55940 from human recombinant CB2 receptor expressed in HEK cell membrane
Record form. Attribute: Ki. Fill in for each entry.
Give bare numbers, in nM.

INSERT INTO measurements (smilesrepresentation, reportedvalue) VALUES
  ('CCCCCCC(C)(C)c1cc(OC)cc(OCCCCCCCC(=O)NCCO)c1', 129),
  ('CCCCCc1cc(OC)cc(OCCCCCCCCCCC(=O)NC(CO)CO)c1', 598),
  ('CCCCCc1cc(OC)cc(OCCCCCCCC(=O)NCCO)c1', 41.9);

Consider the following items and state reported Ki for each.
1. CCCCCc1cc(OCC)cc(OCCCCCCCCCCC(=O)NC2CC2)c1
2. CCCCCc1cc(OCCCC)cc(OCCCCCCCCCCC(=O)NC2CC2)c1

1. 6.7
2. 21.5

What does the record list as Ki for `CCCCCc1cc(OC)cc(OCCCCCCCCCCC(=O)NCC2CC2)c1` ?
10.3

====

Target: Transient receptor potential cation channel subfamily V member 1 (Homo sapiens, UniProt Q8NER1)
Sequence (Q8NER1 whole entry): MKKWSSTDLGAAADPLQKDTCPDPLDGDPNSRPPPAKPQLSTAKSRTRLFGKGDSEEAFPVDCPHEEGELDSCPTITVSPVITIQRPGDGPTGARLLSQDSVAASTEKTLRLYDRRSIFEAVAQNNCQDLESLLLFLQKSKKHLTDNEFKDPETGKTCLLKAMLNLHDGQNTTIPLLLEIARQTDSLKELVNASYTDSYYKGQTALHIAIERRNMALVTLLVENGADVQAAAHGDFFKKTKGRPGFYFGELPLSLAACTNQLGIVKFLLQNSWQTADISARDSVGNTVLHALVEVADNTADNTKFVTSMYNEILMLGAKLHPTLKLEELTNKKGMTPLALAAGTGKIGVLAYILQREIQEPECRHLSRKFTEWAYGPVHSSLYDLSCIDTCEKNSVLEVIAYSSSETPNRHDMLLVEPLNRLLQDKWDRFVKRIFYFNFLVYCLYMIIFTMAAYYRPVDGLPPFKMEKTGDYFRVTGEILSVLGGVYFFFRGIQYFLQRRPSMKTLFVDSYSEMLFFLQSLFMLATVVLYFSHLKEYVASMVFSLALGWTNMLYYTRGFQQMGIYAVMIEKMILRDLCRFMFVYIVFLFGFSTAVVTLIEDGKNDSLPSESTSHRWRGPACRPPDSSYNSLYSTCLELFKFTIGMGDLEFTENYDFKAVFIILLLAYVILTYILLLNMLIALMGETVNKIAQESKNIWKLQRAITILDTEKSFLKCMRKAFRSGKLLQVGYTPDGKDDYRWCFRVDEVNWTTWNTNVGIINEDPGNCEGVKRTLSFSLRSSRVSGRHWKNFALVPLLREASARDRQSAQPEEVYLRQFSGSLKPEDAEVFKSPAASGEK
Assay: Activation of human TRPV1 expressed in HEK293 cells assessed as calcium influx preincubated for 5 mins by Fluo-4AM dye based fluorescence assay
valueKind: pEC50
Give bare numbers, as −log10 of the molar value.

Endpoint output: pEC50 of `CCCCCCC(C)(C)c1cc(OC)cc(OCCCCCCCC(=O)NC2CC2)c1` . Value?
6.92

====

Target: UniProt:Q8NER1
Assay: Antagonist activity at human TRPV1 expressed in HEK293 cells assessed as capsaicin-induced increase of calcium influx preincubated for 5 mins by Fluo-4AM dye based fluorescence assay
valueKind: pIC50
Answers are plain numbers, as −log10 of the molar value.

Bench note: what pIC50 did `CCCCCCC(C)(C)c1cc(OC)cc(OCCCCCCCC(=O)NC2CC2)c1` show?
6.10

====

Molecular target: Cannabinoid receptor 2 (Homo sapiens, UniProt P34972)
Assay: Agonist activity at human CB2 receptor expressed in CHO cell membrane assessed as inhibition of [35S]-GTPgammaS binding incubated for 1 hr by liquid scintillation counting assay
Kindly supply the reported EC50 values for the records listed here.
Numbers only, in nM.

# annotated cases, reported EC50 shown
INSERT INTO measurements (smilesrepresentation, reportedvalue) VALUES
  ('CCCCCc1cc(OC)cc(OCCCCCCCCCCC(=O)NC2CC2)c1', 398),
  ('CCCCCCC(C)(C)c1cc(OC)cc(OCCCCCCCC(=O)NC2CC2)c1', 1.16);

// each compound listed below needs its EC50
1. CCCCCCc1ccc(OCCCCCCCCCCC(=O)NCC2CC2)cc1OC
2. CCCCCc1cccc(OCCCCCCCCCCC(=O)NC2CC2)c1

1. 174
2. 1.28

====

Target: Cannabinoid receptor 2 (Homo sapiens)
Test: Displacement of [3H]-CP55940 from human recombinant CB2 receptor expressed in HEK cell membrane
Format: cell membranes
Exam item: assign Satisfied to entries whose Ki is below 5 nM and Not satisfied to entries at or above 5 nM. Note that a value of exactly 5 nM receives Not satisfied.

Consider the worked cases shown below.
INSERT INTO assay_data (smilesrepresentation, systemname, grouplabel) VALUES
  ('CCCCCCC(C)(C)c1cc(OC)cc(OCCCCCCCCCCC(=O)NCCO)c1', 'Cannabinoid receptor 2 (Homo sapiens)', 'Not satisfied'),
  ('CCCCCc1cc(OC)cc(OCCCCCCCCCCC(=O)NC2CC2)c1', 'Cannabinoid receptor 2 (Homo sapiens)', 'Satisfied'),
  ('C=CCNC(=O)CCCCCCCCCCOc1cc(CCCCC)cc(OC)c1', 'Cannabinoid receptor 2 (Homo sapiens)', 'Not satisfied'),
  ('CCCCCCC(C)(C)c1cc(OC)cc(OCCCCCCCC(=O)NC2CC2)c1', 'Cannabinoid receptor 2 (Homo sapiens)', 'Satisfied'),
  ('C=CCOc1cc(CCCCC)cc(OCCCCCCCCCCC(=O)NC2CC2)c1', 'Cannabinoid receptor 2 (Homo sapiens)', 'Satisfied');

Okay, next one:
Input `CCCCCCC(C)(C)c1cc(OC)cc(OCCCCCCCCCCC(=O)NC(CO)CO)c1` ; condition: Ki strictly below 5 nM. Does it hold?
Not satisfied

// data source = ChEMBL document CHEMBL4622854
